Attribution: ChEMBL document CHEMBL5226384

Listing of entries alongside the reported IC50 at 6 h.
Assay: Cytotoxicity against fibroblast (unknown origin) cells assessed as reduction in cell viability incubated for 6 hrs by SRB assay
Type: toxicity, cell-based
Quick reminder: number only, in µM, skip the unit.

Entry CC1=CCCC(C)(C)[C@@H]1Cc1c(O)cc(/C=C/c2ccc(O)cc2)cc1O , IC50 at 6 h reported as 6.6

Entry CC1=CCCC(C)(C)[C@H]1Cc1c(O)cc(/C=C/c2ccc(O)cc2)cc1O , IC50 at 6 h reported as 6.6

Entry CC1=CCCC(C)(C)[C@H]1Cc1cc(/C=C/c2cc(O)cc(O)c2)ccc1O , IC50 at 6 h reported as 7.4

Entry CC1(C)CCC[C@@]2(C)Oc3cc(/C=C/c4ccc(O)cc4)cc(O)c3C[C@@H]12 , IC50 at 6 h reported as 7.1

Entry CC1=CCCC(C)(C)[C@@H]1Cc1cc(/C=C/c2cc(O)cc(O)c2)ccc1O , IC50 at 6 h reported as 7.1

Entry CC1(C)CCC[C@]2(C)Oc3ccc(/C=C/c4cc(O)cc(O)c4)cc3C[C@H]12 , IC50 at 6 h reported as 8

Entry Oc1ccc(/C=C/c2cc(O)cc(O)c2)cc1 , IC50 at 6 h reported as 218

Entry CC1(C)CCC[C@@]2(C)Oc3ccc(/C=C/c4cc(O)cc(O)c4)cc3C[C@@H]12 , IC50 at 6 h reported as 6.9

Entry CC1(C)CCC[C@]2(C)Oc3cc(/C=C/c4ccc(O)cc4)cc(O)c3C[C@H]12 , IC50 at 6 h reported as 6.6

Entry COc1cccc2c1C(=O)c1c(O)c3c(c(O)c1C2=O)C[C@@](O)(C(=O)CO)C[C@@H]3O[C@H]1C[C@H](N)[C@H](O)[C@H](C)O1 , IC50 at 6 h reported as 67

====

Test system: HT-29
Test: Cytotoxicity against human HT-29 cells assessed as reduction in cell viability incubated for 6 hrs by SRB assay
Format: functional, cell-based
Settings: HT-29, 6 h
Listing of entries alongside the reported pIC50.
The value called pIC50 is obtained by taking minus log10 of the concentration in mol/L.

Some solved entries appear below for comparison.
• CC1(C)CCC[C@@]2(C)Oc3cc(/C=C/c4ccc(O)cc4)cc(O)c3C[C@@H]12 = 5.66
• CC1(C)CCC[C@]2(C)Oc3ccc(/C=C/c4cc(O)cc(O)c4)cc3C[C@H]12 = 5.48
• COc1cccc2c1C(=O)c1c(O)c3c(c(O)c1C2=O)C[C@@](O)(C(=O)CO)C[C@@H]3O[C@H]1C[C@H](N)[C@H](O)[C@H](C)O1 [DOXORUBICIN] = 6.92
• CC1=CCCC(C)(C)[C@@H]1Cc1c(O)cc(/C=C/c2ccc(O)cc2)cc1O = 5.36
• CC1(C)CCC[C@@]2(C)Oc3ccc(/C=C/c4cc(O)cc(O)c4)cc3C[C@@H]12 = 5.55

Entry CC1(C)CCC[C@]2(C)Oc3cc(/C=C/c4ccc(O)cc4)cc(O)c3C[C@H]12 , pIC50 reported as 5.44

Entry CC1=CCCC(C)(C)[C@@H]1Cc1cc(/C=C/c2cc(O)cc(O)c2)ccc1O , pIC50 reported as 5.28

Entry CC1=CCCC(C)(C)[C@H]1Cc1cc(/C=C/c2cc(O)cc(O)c2)ccc1O , pIC50 reported as 5.30

Entry CC1=CCCC(C)(C)[C@H]1Cc1c(O)cc(/C=C/c2ccc(O)cc2)cc1O , pIC50 reported as 5.60

Entry Oc1ccc(/C=C/c2cc(O)cc(O)c2)cc1 [RESVERATROL] , pIC50 reported as 3.92

====

System: NCI-H460
Test: Cytotoxicity against human NCI-H460 cells assessed as reduction in cell viability incubated for 6 hrs by SRB assay
Format: functional, cell-based
Settings: NCI-H460, 6 h
Endpoint label: pIC50
The value called pIC50 is obtained by taking minus log10 of the concentration in mol/L.

- Oc1ccc(/C=C/c2cc(O)cc(O)c2)cc1: 4.24
- CC1(C)CCC[C@@]2(C)Oc3ccc(/C=C/c4cc(O)cc(O)c4)cc3C[C@@H]12: 5.60
- COc1cccc2c1C(=O)c1c(O)c3c(c(O)c1C2=O)C[C@@](O)(C(=O)CO)C[C@@H]3O[C@H]1C[C@H](N)[C@H](O)[C@H](C)O1: 8.00
- CC1(C)CCC[C@]2(C)Oc3ccc(/C=C/c4cc(O)cc(O)c4)cc3C[C@H]12: 5.66
- CC1(C)CCC[C@]2(C)Oc3cc(/C=C/c4ccc(O)cc4)cc(O)c3C[C@H]12: 5.85

Observed pIC50 on NCI-H460, entry CC1=CCCC(C)(C)[C@H]1Cc1cc(/C=C/c2cc(O)cc(O)c2)ccc1O , equals 5.22

Observed pIC50 on NCI-H460, entry CC1=CCCC(C)(C)[C@@H]1Cc1cc(/C=C/c2cc(O)cc(O)c2)ccc1O , equals 5.26

====

System: NCI-H460
Assay: Cytotoxicity against human NCI-H460 cells assessed as reduction in cell viability incubated for 6 hrs by SRB assay
Type: functional, cell-based
Details: NCI-H460, 6 h
Listing of entries alongside the reported pIC50.
The value called pIC50 is obtained by taking minus log10 of the concentration in mol/L.

• CC1=CCCC(C)(C)[C@H]1Cc1c(O)cc(/C=C/c2ccc(O)cc2)cc1O = 5.77
• CC1=CCCC(C)(C)[C@@H]1Cc1c(O)cc(/C=C/c2ccc(O)cc2)cc1O = 5.77

Next molecule, pIC50 to be filled in.
Entry CC1(C)CCC[C@@]2(C)Oc3cc(/C=C/c4ccc(O)cc4)cc(O)c3C[C@@H]12 , pIC50 reported as 5.77
